- Assay Notes: Selectivity index, ratio of IC50 for human HL7702 cells to IC50 for human A549 cells
- Format: toxicity
- Experimental Conditions: HL7702 cells versus A549 cells, read-out: Ratio IC50
Result Type: selectivity ratio

Measured selectivity ratio, COC(=O)[C@]1(C)CCC[C@]2(C)c3ccc(C(C)C)c(NC(=O)Cn4cc(-c5cccc(NC(=O)OC(C)(C)C)c5)nn4)c3CC[C@@H]12 : 6.1

----------
- Assay Notes: Half life in rat liver microsomes in presence of NADPH by HPLC analysis
- Type: ADME, microsome
Result Type: half-life (h)
# value in h; strip the unit string

GET /value?item= COC(=O)[C@]1(C)CCC[C@]2(C)c3ccc(C(C)C)c(NC(=O)Cn4cc(-c5cccc(NC(=O)OC(C)(C)C)c5)nn4)c3CC[C@@H]12 &field=half-life returns 2.19
